Exercise: for every item that follows, state its recorded protease stability score.
Test: protease stability score; higher = more stable; yeast display proteolysis, trypsin and chymotrypsin;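 also: relative to predicted unfolded state with 0 unfolded-like and 1 meaning tenfold more protease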

## Task Consider the sequence `DEERKIVLESVRLWLDEWETGDESALEKLMDPNVRVIIGDKTVHGREQMIKFLREWLTRYDHLEIKLRDIKVIGDKIHVESEFRYHIGDKELSHRTNVVLKIVDGKLKSVRVDFE` and give its recorded protease stability score.
## Result 1.93

## Task State its protease stability score for this sequence: `SEKRQEERKMLELIEHYWQTGDFELLRELADPDTKVRIGDKERHGWEAYIEILRTLGADHMSIRDQKTVGDYVILHIDIRIGDKRYETTLVSEKFDGRWILRRSEFR`
## Result 1.16

## Task Return reported protease stability score. Input sequence: `DEEEHEEKRLLEMHLHYLATGDEENLKKLLDPNVKLVVNGREIHGRERIIEFIRRLIEMWGVDRIDSRIRHVTSQGDKIRLEGEWIVGEKVIDTRLLAVKVDGRWVEETLILK`
## Result 2.13

## Task State, in one line, measured protease stability score of `REWKEEMLRFLTRWNKAYKTGNEQELNKLADPNVRVDINGKQLHGRELATLIVSELRIEETHVKMDTFRIVGEKAEIDSRLEIHGVYDGVKMDTHHEVVIILRKVDGQWHLTTMEER`
## Result 0.382

## Task Supply reported protease stability score belonging to this sequence: `DEEEKLEEDLARFWVTLLKTGDEEVIRHLADPHVREDWDGVHIHGREHVAKYLSQIKNVTWEIKEVRIYNGRTEIDARHHVNGRDEHVRIHIEVFNGKVRRLRFEKR`
## Result 1.5

## Task Give the reported value of protease stability score for this record: `DHEDRLAEEIARFIYHYWETGDEEEISDLFDPHVRVEININGKRIEKVGREHFYHWFHYWRERFKNLKINFKRLDPVNGKVHVETRVHQGDKERRMILEFDVVNGRIRVFRMEVHEN`
## Result 2.5

## Task Identify the reported protease stability score for the following entry. `SEDTEMVRIVLEHIEHVWRTGDEHTLRELMDPHVRMDINGREHHGREHVSEIFEQEMRELGADHFRIDHKHVRIINGRIILYLRVKTHIGEKRLDIEIIIILSKVDGRWFIKEISIRHI`
## Result 1.11

## Task Identify measured protease stability score associated with `QEDEDFVRWALHVFMRYVLTGDEESLERLLDPDVRITVGNKHLHGMENATNELRHMSKQVDHIHDLRFHDVRSINGRIHETGIDDGIINGRRIHRESILVIEKVNGRWHFHSIRVL`
## Result 0.836

## Task Query protease stability score for `KELDEKVDTAIRIFHDVMLTGDEEKLIKLMDPNTRIRYNGRELHGWESHIKLREEELHELGVERVVHIFHNREIRAYDGVADIKGELEIRFNGRTVRHEFRIKFEKVNGRWVVREIEIH`
## Result 1.31

## Task # return recorded protease stability score for input `SEEEHLMRELLEVFLRNMLTGDWDKTAKLADPDTRFRAHVGDFKVERHGMEQFIKWLKDEREQWRIRRIHIDRIELVDGVIRVEGTIDVEYDGVREVERSELILVIIDGRIHEVEVHIR`
## Result 1.44

## Task Supply recorded protease stability score for `DEHEEFLHRWAEQFLKNMITGDFDRLHELLDPHVRWRIGDKDSIGWKTIIDVVKDLLREIRIEDVTLHRIEVQGDKSIIVITTIVEIDGRRYRTTVIIRMRIIDGRLKSVDVEER` here.
## Result 1.31

----------
Exercise: for every item that follows, state its recorded protease stability score.
Assay: protease stability score; higher = more stable; yeast display proteolysis, trypsin and chymotrypsin;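 also: relative to predicted unfolded state with 0 unfolded-like and 1 meaning tenfold more protease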
Enter a number only.

## Task Please report protease stability score for the following sequence: `SKEDRDAKWAFEHLMHLLHTGDEEKINENLDPNARNEFDGRELHGREIITEILRNLGIKHLHIHSVEFISQGDKLFSNVDGNNIFDGREVHTHLHFIIEKFNGKWNIKSIHIKIT`
## Result 1.19

## Task Query protease stability score for `HEEDEMAIKIVELFIHALHTGNEELLHNLLDPEVRLTVDGRRIHGRHWVLRELLHIRVHDIHWTDIDKVNGKIELHTRQDGDVDGRRHEVNVTLVVIKVDGQWILHSVMVE`
## Result 2.09

## Task Specify reported protease stability score for the sequence shown: `DEENEHSEKISEEVLHALHTGDWNRLAHLADPHTLLIIEYGDKEIVNHGWEVFVKWILDVFRKVKNIKVHIRDSKVIGDKIHLDVEIHFNGRTTTVHIDITIIDGRLHSIHINHK`
## Result 1.8

----------
Test: protease stability score; higher = more stable; yeast display proteolysis, trypsin and chymotrypsin;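 also: relative to predicted unfolded state with 0 unfolded-like and 1 meaning tenfold more protease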
Binary call on protease stability score: Y from 1 upward, N beneath that.

## Task Decide: is the reported value of protease stability score for `DSSENFMRHMMEEVWNALVTGDEKLFQRLADPDVRLHFNGVHTHGRENVLTFLRSLDEHLGVKHRSIHDFTIVGDYSHIDTTMEVGDKHWRIHLFLVIIDGRVHHIEIRIE` equal to or greater than 1?
## Result Y

## Task Does protease stability score meet or surpass 1 for `SEEEHVTDLALELWIRTHNTGNWHLLKRLLDPNTRVQVGNKIYHGMELISKEIFRKLLEMGFETHIEVEDSEYFEGHVRFRITIRLVVGDKEIILDTELLMIKFNGRWFITEIRIE` ?
## Result N

## Task hey, is protease stability score for this one >= 1? `DEEKEEEDLVLEILIHMMRTGDEELLDELLDPNARQIVGDKEFIGRELSHWFATFFKNVKVEIKHFRVINGRIHMHVHIQIGDKRHDMRITARKVNGKWVLEESHIR`
## Result Y

## Task Would you say `TEDRESILKLITMEQRNLRTGDEERWHELADPDYRLEFENREIHGREHAIRFMIETTLKLGVDHVELIINDVKWQGDKLHIDGHLRLEIGDKIIEERVIIINLKVNGRWLLRRKHVG` shows protease stability score at minimum 1?
## Result Y

## Task Please indicate if the recorded protease stability score for `SEEERESKEATKLHLDALRTGNEELLRHLFDPDVKVDVNGKHLHGWKLLTEVLQRMGVKHVELTDFRVYDGRIDLREKWDVDGKEIEVFIHARKFNGQWHTESIHIK` meets or exceeds 1.
## Result Y

## Task Answer whether protease stability score of `DEKQDLWRHLLEQFFRWYQTGDEDLLFKYADPHVRFRQGDKEHHGREEMIRMLREHRHHFGADHFKVETMEIQGDKATFVMHDHVNGVDIEIRVHVVVIDGRIRSFKFERH` is greater than or equal to 1.
## Result Y

----------
Assay: protease stability score; higher = more stable; yeast display proteolysis, trypsin and chymotrypsin;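 also: relative to predicted unfolded state with 0 unfolded-like and 1 meaning tenfold more protease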
value_kind: protease stability score
# respond with the number and nothing more

## Task Note down protease stability score recorded for `DEHHEILREASELFIKAWLTGDEDTMQEMMDPHTRVVFNGRTHHGWTFASEILERIKNIRIQIDDVRHQGEYVEIHFKLHIDGVRWNTKIHLHVIDGKLKRIQHTTE`
## Result 1.01

## Task Output protease stability score of `DEMREEVETILKLMEEWEKTGDFETILTYLDPNARLHENINGRELHSHGREFIHWAYEFFKNLRIETVQEDEVHIFENHFQIRVTLKGTINGRHYIFHRIIIINAIDGRIRHEVILYK`
## Result 1.53

## Task Please report the measured protease stability score for `SEEEESIHEAQKVFLKIIMTGDWEEIARRLDPDVRLHIGNKKVHGREEAIEFFRKFLEEIRIHDEELKEFSSIDGRVHIRGEIDGTINGVRDRVEVHNVIWKFNGRWFISFREER`
## Result 1.36

## Task Return the recorded protease stability score value; entry: `SDEERLLHELLHRVLHKRVTGDEESIWREIDPRARIDVNGRDVHGRDHFFEFIVKWMMHYGINHLEIKNQREIDGRIDVDFHEEVGDKRFHVRIIFHKINGRWHLTQEVFT`
## Result 1.19

## Task Return reported protease stability score. Input sequence: `DHLRHTVERMVLHLLRLSLTGDEEEWLKLLDPNTKLEVGDKTRHGREDVAQFLLEMRVERVEVSDYRFNNVNGVVRVEIDGHFDFEYDGKREDSRVEIYLLFEKVNGKWHLKFVKVVFK`
## Result 1.69

## Task Tell us which protease stability score value is on record for `TDVEEQVHVAIELHLRTLLTGDEHLSEKLADPHVRILIDGQDYHGRTEWVKWIHTFHKRVDHHQIDVTTLSVQGDKIRIHFELKLHVNGVDLRFHILLIIEKYNGVWIMSEVHIS`
## Result 1.67
